Test system: Plasmodium falciparum
Assay: Screen against P. falciparum Asexual Blood Stage (ABS), at 5uM
Assay type: functional, Dd2
Conditions: tested at 5 uM
Screen size: about 65,000 compounds; about 2,100 (3.2%) showed an effect of 50% or more. The median lay at about -52%. The entries come from a sample that favours strong results as a whole.
Value kind: INHIBITION

[[record]]
compound = "COCCN1CCCC(c2nccnc2-c2cccc(Cl)c2)C1 (stereo unspecified)"
value_kind = "INHIBITION"
assay_result = "62.9%"

[[record]]
compound = "Cc1cnn(C2CN(c3ccccc3S(=O)(=O)C(F)(F)F)C2)c1"
value_kind = "INHIBITION"
assay_result = "-111%"

[[record]]
compound = "CNc1nc(CNC(=O)Nc2cccc(CSC)c2)cs1"
value_kind = "INHIBITION"
assay_result = "28.7%"

[[record]]
compound = "Cc1nn(C)c(N(C)C)c1CNCC(O)COc1cccc(F)c1 (stereo unspecified)"
value_kind = "INHIBITION"
assay_result = "-0.711%"

[[record]]
compound = "CCOCC(=O)N1C[C@@H]2COC[C@]2(c2nc(C)no2)C1"
value_kind = "INHIBITION"
assay_result = "-63.5%"

[[record]]
compound = "CN(C)C(=O)CN1CCCC(c2nccnc2-c2cccc(Cl)c2)C1 (stereo unspecified)"
value_kind = "INHIBITION"
assay_result = "6.94%"

[[record]]
compound = "O=C(NCCc1cccs1)[C@H]1CO[C@H]2CCN(C3CCC3)C[C@H]2C1"
value_kind = "INHIBITION"
assay_result = "-9.07%"

[[record]]
compound = "CN1CCCC(c2nccnc2-c2cccc(Cl)c2)C1 (stereo unspecified)"
value_kind = "INHIBITION"
assay_result = "45.1%"

[[record]]
compound = "CCc1nc(C)c(CC(=O)N2CCC3(CC2)OCCCC3O)c(=O)[nH]1 (stereo unspecified)"
value_kind = "INHIBITION"
assay_result = "-109%"

[[record]]
compound = "Cc1cc(NCc2ccc(C#N)cc2)n2nc(C)cc2n1"
value_kind = "INHIBITION"
assay_result = "-88.7%"

[[record]]
compound = "CC(=O)Nn1ccc2c(nnc3c(-c4ccccc4)cnn32)c1=O"
value_kind = "INHIBITION"
assay_result = "-65.6%"


###

Items are presented alongside their recorded INHIBITION.
Test system: Plasmodium falciparum
Assay: Screen against P. falciparum Asexual Blood Stage (ABS), at 5uM
Type: functional, Dd2
Details: tested at 5 uM
Hit rate of the full screen: of about 65,000 compounds, about 2,100 (3.2%) showed an effect of 50% or more. The median lay at about -52%. For the sample, strong results were picked, then their nearest neighbours and some compounds at random.
Value kind: INHIBITION (%)

[[record]]
compound = "O=C(C1CCCN(Cc2ccccc2)C1)N1CCc2sccc2C1 (centres undefined)"
value_kind = "INHIBITION"
measurement_units = "%"
assay_result = 12.7

[[record]]
compound = "CSc1ccc(C(CN)N2CCc3sccc3C2)cc1 (centres undefined)"
value_kind = "INHIBITION"
measurement_units = "%"
assay_result = 9.08

[[record]]
compound = "N#Cc1cccc(S(=O)(=O)N2CCCCC2CCN2CCCC2)c1 (centres undefined)"
value_kind = "INHIBITION"
measurement_units = "%"
assay_result = -4

[[record]]
compound = "CN(CCc1ccncc1)Cc1nccn1Cc1ccccc1"
value_kind = "INHIBITION"
measurement_units = "%"
assay_result = 42.2

[[record]]
compound = "CN(Cc1ccncc1)Cc1nccn1Cc1ccccc1"
value_kind = "INHIBITION"
measurement_units = "%"
assay_result = -37.9

[[record]]
compound = "CC(=O)N1CCc2nc(-c3ccc(F)cc3)nc(NC(C)C)c2CC1"
value_kind = "INHIBITION"
measurement_units = "%"
assay_result = 6.79

[[record]]
compound = "CN(CCn1cccn1)S(=O)(=O)c1ccc(C#N)cc1"
value_kind = "INHIBITION"
measurement_units = "%"
assay_result = -48.4

[[record]]
compound = "Cc1nc[nH]c1CN1CCCC12CCN(c1nc3ccccc3s1)CC2"
value_kind = "INHIBITION"
measurement_units = "%"
assay_result = 24.2

[[record]]
compound = "CCS(=O)(=O)N1Cc2ncn(C)c2C(COCC2CCOCC2)C1 (centres undefined)"
value_kind = "INHIBITION"
measurement_units = "%"
assay_result = -46.6

[[record]]
compound = "CCc1nc(C2CCCN(C(=O)c3ccccc3F)C2)no1 (centres undefined)"
value_kind = "INHIBITION"
measurement_units = "%"
assay_result = -49.5

[[record]]
compound = "Cc1ccc(CN2C(=O)CCC23CCC(NCC2CCOC2)CC3)cc1 (centres undefined)"
value_kind = "INHIBITION"
measurement_units = "%"
assay_result = -1.23

[[record]]
compound = "CSc1ccc(C(CNC(C)=O)N2CCc3sccc3C2)cc1 (centres undefined)"
value_kind = "INHIBITION"
measurement_units = "%"
assay_result = -77.1

[[record]]
compound = "Cc1ccsc1CN(CCN(C)C)C(=O)c1ccc(C#N)nc1"
value_kind = "INHIBITION"
measurement_units = "%"
assay_result = 46.5

[[record]]
compound = "c1cnc(-c2nc(CN3CCCC(N4CCCC4)C3)cs2)nc1 (centres undefined)"
value_kind = "INHIBITION"
measurement_units = "%"
assay_result = 51.7

[[record]]
compound = "CCc1nn(-c2cc(Oc3cc(C)ccc3C)ncn2)c(N)c1C#N"
value_kind = "INHIBITION"
measurement_units = "%"
assay_result = -64

[[record]]
compound = "CC(O)(CN1CCN(CCO)CC1)c1cccc(C(F)(F)F)c1 (centres undefined)"
value_kind = "INHIBITION"
measurement_units = "%"
assay_result = 45.7

[[record]]
compound = "O=C(COCC1CC1)NCC(c1ccccc1)N1CCc2sccc2C1 (centres undefined)"
value_kind = "INHIBITION"
measurement_units = "%"
assay_result = -122

[[record]]
compound = "Cc1ccc(CNCC2CCN(CCO)CC2)cc1"
value_kind = "INHIBITION"
measurement_units = "%"
assay_result = 13

[[record]]
compound = "COCCCC1CCCCN1S(=O)(=O)c1cccc(C#N)c1 (centres undefined)"
value_kind = "INHIBITION"
measurement_units = "%"
assay_result = -16.1

[[record]]
compound = "CCN(C)C[C@@H]1CN(S(=O)(=O)c2ccc(C#N)cc2)C[C@@H]1CO"
value_kind = "INHIBITION"
measurement_units = "%"
assay_result = 15.5

[[record]]
compound = "CCN1CCCC1CN(CCN(C)C)S(=O)(=O)c1ccc(C#N)cc1 (centres undefined)"
value_kind = "INHIBITION"
measurement_units = "%"
assay_result = 59.7

[[record]]
compound = "COCCN1CCN(CC(C)(O)c2cccc(C(F)(F)F)c2)CC1 (centres undefined)"
value_kind = "INHIBITION"
measurement_units = "%"
assay_result = 20.5

[[record]]
compound = "CCN1CCN(CC(C)(O)c2cccc(C(F)(F)F)c2)CC1 (centres undefined)"
value_kind = "INHIBITION"
measurement_units = "%"
assay_result = 61.4

[[record]]
compound = "COC(=O)c1ccccc1C(=O)N(CCN(C)C)Cc1sccc1C"
value_kind = "INHIBITION"
measurement_units = "%"
assay_result = 18.3

